Numbers sourced from paper PMC5540273.

- System: CDK9
- Study Conditions: concentration: 1 μM, replicates: in singlicate; n = 1
Reported Metric: %Inh (%)
The reply should contain only the number, in %.

Recorded results for 4 compounds are shown here.
>>> observed_result("CN1c2ccc(-c3ccc(C(=O)NCCO)cc3)cc2-c2[nH]ncc2S1(=O)=O")
0
>>> observed_result("Clc1ccc(-c2cc(-c3c[nH]nc3-c3ccccn3)ccn2)cc1")
0
>>> observed_result("Cl.c1ccc(Cn2ncc3cc(Nc4ncnc5ccccc45)ccc32)cc1")
0
>>> observed_result("Clc1cc(Nc2ncnc3cc[nH]c23)ccc1OCc1ccccn1")
30

Entry under test: `Cl.Cl.c1ccc(-c2cc3ccncc3cc2OC2CCNCC2)cc1` . Its %Inh was 2

Input `FC(F)(F)c1ccc(-c2cc(-c3c[nH]nc3-c3ccccn3)ccn2)cc1` . Output %Inh: 0

`FC(F)(F)c1ccc(-c2nn3ncccc3c2-c2ccnc(Nc3cccc(C(F)(F)F)c3)n2)cc1` yielded %Inh of 0

Record `Cn1ccc2ncnc(Nc3ccc(Oc4cccc(Cl)c4)c(Cl)c3)c21` . Reported %Inh: 15

The reported %Inh of the compound `Nc1nc(-c2cccnc2)c(-c2ccnc3ccccc23)s1` was 0

====

%Inh by entry:
- Tested on: MST1R
- Study Conditions: concentration: 1 μM, replicates: in singlicate; n = 1
Expressed in %, but write only the number.

For orientation, consider the following solved cases.
>>> observed_result("COc1ccc(NC(=O)Nc2ccc(C)c(-c3ccc(C(=O)Nc4ccncc4)cc3)c2)cc1")
36
>>> observed_result("COc1ccc(Nc2nccc(N3CCC(NC(=O)c4cccc(NC(C)=O)c4)C3)n2)cc1 (stereo not shown)")
34
>>> observed_result("CCCc1ccc(S(=O)(=O)NC2CCN(c3ccnc(Nc4ccc(OC)cc4)n3)C2)cc1 (stereo not shown)")
39

Turning now to a further compound:
Record summary for `COC(=O)c1cccc(NC(=O)NCCNc2ccnc(Nc3ccc(F)cc3)n2)c1` : reported %Inh = 25

====

- Tested on: ZAP70
- Study Conditions: concentration: 1 μM, replicates: in singlicate; n = 1
Reported Metric: %Inh (%)
Entry rule: numbers only, all in %.

Here are 5 compounds together with their reported answers.
>>> observed_result("CNc1nccc(-c2c(-c3ccc(F)cc3)ncn2C2CCN(C)CC2)n1")
0
>>> observed_result("COc1ccc(NC(=O)Nc2ccc(C)c(-c3ccc(C(=O)Nc4ccncc4)cc3)c2)cc1")
0
>>> observed_result("CCC(CC)(CC)n1cnc2c(N)ncnc21")
29
>>> observed_result("Cc1cccc(-c2nc(Nc3ccc4[nH]nnc4c3)c3ccccc3n2)n1")
0
>>> observed_result("CCc1nc(-c2cccc(N(C)S(=O)(=O)c3ccccc3)c2)c(-c2ccnc(Nc3ccc(N4CCN(C(C)=O)CC4)nc3)n2)s1")
0

// assay ZAP70, entry `FC(F)(F)c1cc(Nc2nccc(-c3c(-c4ccc(Cl)cc4)nn4ncccc34)n2)ccc1Cl` , %Inh value = 0

Summary: `COC(=O)c1cccc(NC(=O)NCCNc2ccnc(Nc3ccc(F)cc3)n2)c1` , ZAP70, %Inh = 0

I looked up `c1ccc(-c2ccc3c(-c4ccnc(Nc5ccc6c(c5)OCCO6)n4)cnn3n2)cc1` and its %Inh for ZAP70 was 20

====

# maps each entry to its %Inh
- Test system: CHEK2
- Study Conditions: concentration: 1 μM, replicates: in singlicate; n = 1
Enter your answer as a number in %; do not include the unit.

>>> observed_result("Cl.Cl.c1ccc(-c2cc3ccncc3cc2OC2CCNCC2)cc1 [GSK1122999]")
0
>>> observed_result("CN1c2ccc(-c3ccc(C(=O)NCCO)cc3)cc2-c2[nH]ncc2S1(=O)=O")
65

Short answer for CCCc1ccc(S(=O)(=O)NC2CCN(c3ccnc(Nc4ccc(OC)cc4)n3)C2)cc1 (centres unmarked) [GSK1379737] : %Inh was 15

Per the record, Cl.O=S(=O)(c1cccc(F)c1)c1ccc(Nc2ncnc3cc(Br)sc23)cc1Cl [GSK306886] has %Inh of 0

// field: %Inh; key: Nc1n[nH]c2nnc(-c3ccccc3)cc12 [SB-517389] ; value = 0

====

- Tested on: MARK2
- Study Conditions: concentration: 1 μM, replicates: in singlicate; n = 1
Reported Metric: %Inh
Units required after the number.

>>> observed_result("CC(C)(C)c1ccc(-n2cnc3c(N)ncnc32)cc1")
"0%"
>>> observed_result("CCc1nc(-c2cccc(N(C)S(=O)(=O)c3ccccc3)c2)c(-c2ccnc(Nc3ccc(N4CCN(C(C)=O)CC4)nc3)n2)s1")
"4%"
>>> observed_result("CC(=O)Nc1n[nH]c2ncc(-c3ccccc3)cc12")
"5%"
>>> observed_result("Cc1ccc(NC(=O)c2cccc(C#N)c2)cc1-c1ccc(C(=O)Nc2ccncc2)cc1")
"0%"
>>> observed_result("O=C(Nc1ccccc1F)NC1CCN(c2ccnc(Nc3ccc(F)cc3)n2)C1 (stereo not drawn)")
"0%"
>>> observed_result("Cl.Cn1ccc(-c2cccc(Nc3ccnc4cc(-c5nccs5)ccc34)c2)n1")
"100%"
>>> observed_result("Cn1cc(-c2ccc3c(c2)CCN3C(=O)Cc2cccc(C(F)(F)F)c2)c2c(N)ncnc21")
"0%"
>>> observed_result("CCc1nc(-c2cccc(C)c2)c(-c2ccnc(NC(=O)c3ccccc3)c2)s1")
"0%"
>>> observed_result("c1ccc(-c2ccc3c(-c4ccnc(Nc5ccc6c(c5)OCCO6)n4)cnn3n2)cc1")
"0%"
>>> observed_result("Cl.c1ccc(Cn2ccc3cc(Nc4ncnc5ccccc45)ccc32)cc1")
"28%"

Okay, now this compound:
Test item `FC(F)(F)c1ccc(-c2cc(-c3c[nH]nc3-c3ccccn3)ccn2)cc1` ; MARK2; reported %Inh was 0%

====

- Test system: PIM1;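 further: kd values determined as follow-up on hits from a single-replicate KINOMEscan panel screen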
Reported Metric: Kd

Record summary for `O=C(c1ccc(-c2cc(-c3c[nH]nc3-c3ccccn3)ccn2)cc1)N1CCCC1` : reported Kd = > 10 µM

====

Below, each of the compounds is paired with its reported %Inh value.
- Test system: PAK3
- Study Conditions: concentration: 1 μM, replicates: in singlicate; n = 1
Just so you know, I need the unit written after the number.

>>> observed_result("Cc1ccc(NC(=O)c2cccc(C#N)c2)cc1-c1ccc(C(=O)Nc2ccncc2)cc1")
"0%"
>>> observed_result("Cn1cc(-c2ccc3c(c2)CCN3C(=O)Cc2cccc(C(F)(F)F)c2)c2c(N)ncnc21")
"25%"
>>> observed_result("O=c1cc(N2CCOCC2)nc2n(Cc3cccc(Cl)c3)ccn12")
"0%"
>>> observed_result("FC(F)(F)c1ccc(-c2cc(-c3c[nH]nc3-c3ccccn3)ccn2)cc1")
"32%"
>>> observed_result("Nc1nc(-c2ccc3c(N)n[nH]c3c2)cc(N2CCCCC2)n1")
"6%"

So for `Nc1nccc2scc(-c3ccc4c(c3)CCN4C(=O)Cc3cc(F)ccc3F)c12` , the logged %Inh turned out to be 19%

// sample `COc1ccc(-c2oc3ncnc(N)c3c2-c2ccc(OC)cc2)cc1` , its %Inh was 14%

Measured %Inh of `FC(F)(F)c1ccc(-c2nn3ncccc3c2-c2ccnc(Nc3cccc(C(F)(F)F)c3)n2)cc1` : 0%

`Fc1ccc(-c2ncn(CCCNCc3ccccc3)c2-c2ccncc2)cc1` yielded %Inh of 0%

====

- System: BRSK2
- Study Conditions: concentration: 1 μM, replicates: in singlicate; n = 1
Reported Metric: %Inh

The following molecules have reported results that may help.
>>> observed_result("CCc1nc(-c2cccc(C)c2)c(-c2ccnc(NC(=O)c3ccccc3)c2)s1")
"17%"
>>> observed_result("Cl.Fc1ccccc1COc1ccc(Nc2ncnc3ccc(-c4nnc(C(F)(F)F)o4)cc23)cc1Cl [GW424170]")
"0%"
>>> observed_result("OCCOCCn1ccc2ncnc(Nc3ccc(Oc4cccc(Cl)c4)c(Cl)c3)c21")
"33%"

Could you now look at the following molecule, please?
Reported %Inh ( Nc1nccc2scc(-c3ccc4c(c3)CCN4C(=O)Cc3cc(F)ccc3F)c12 [GSK2587663] ) = 0%

====

Listed molecules paired with reported %Inh
- Test system: WEE2
- Study Conditions: concentration: 1 μM, replicates: in singlicate; n = 1
Number only, in %; omit the unit.

Below, 5 molecules whose answers are already recorded.
>>> observed_result("Cn1ccc2ncnc(Oc3ccc(NC(=O)Nc4cccnc4)c(Cl)c3)c21")
28
>>> observed_result("Cl.c1ccc(Cn2ccc3cc(Nc4ncnc5ccccc45)ccc32)cc1")
14
>>> observed_result("Cn1cc(-c2ccc3c(c2)CCN3C(=O)Cc2cccc(C(F)(F)F)c2)c2c(N)ncnc21")
19
>>> observed_result("Fc1cccc(COc2ccc(Nc3ncnc4nn5ccccc5c34)cc2Cl)c1")
0
>>> observed_result("CS(=O)(=O)CCNCc1nc(-c2ccc3ncnc(Nc4ccc(OCc5cccc(F)c5)c(Cl)c4)c3c2)cs1.Cl")
0

Now for the molecule whose %Inh we want.
Quick note, %Inh for `C[C@H]1CC[C@@H](C(=O)Nc2ccccc2)CN1c1cc(-c2ccc3c(N)n[nH]c3c2)nc(N)n1` landed at 14
